Data provenance: patent US20240247080A1

- targetEntity: T1, human neuropeptide Y2 receptor (human, UniProt P49146 1-381)
- T1 sequence (looked up): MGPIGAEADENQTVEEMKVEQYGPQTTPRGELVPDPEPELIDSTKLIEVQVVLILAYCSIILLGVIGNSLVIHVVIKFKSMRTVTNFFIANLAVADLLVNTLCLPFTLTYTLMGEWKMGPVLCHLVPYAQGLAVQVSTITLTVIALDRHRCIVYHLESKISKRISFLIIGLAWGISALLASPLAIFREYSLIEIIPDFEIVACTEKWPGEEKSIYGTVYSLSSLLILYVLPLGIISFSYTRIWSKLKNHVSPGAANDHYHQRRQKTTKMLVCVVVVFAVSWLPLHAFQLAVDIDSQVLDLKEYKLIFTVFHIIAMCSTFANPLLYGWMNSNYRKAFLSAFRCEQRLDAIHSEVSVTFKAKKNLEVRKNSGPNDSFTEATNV
- methodDescription: cell-based or functional assay
Starred links: 1 amine or outer side, 2 acyl side, 3 side chain; linkers in the order of their positions; H or OH if unused. Non-standard residues stand in square brackets, D forms with d. Groups on a side chain read outwards from the residue. No end group written: not given here. *: point of attachment. C20 diacid = O=C(O)CCCCCCCCCCCCCCCCCCC(=O)*; C18 diacid = O=C(O)CCCCCCCCCCCCCCCCC(=O)*; γGlu = O=C(O)[C@H](CCC(=O)[*:2])N[*:1]; AEEA = NCCOCCOCC(=O)O; Aib = CC(C)(N)C(=O)O
Decision: EC50 hNPY2R 0.5% hP (CreLuc) beneath 20 nM gives rule met; EC50 hNPY2R 0.5% hP (CreLuc) meeting or exceeding 20 nM gives rule not met.

Answer whether the binder Y[Aib]EGTFTSDYSI[Aib]LEKQAQ[Aib]EFVEWLIK([AEEA-γGlu-γGlu-γGlu-C18 diacid])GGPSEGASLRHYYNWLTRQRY-NH2 (also: TFA salt) [Compound 274] has EC50 hNPY2R 0.5% hP (CreLuc) strictly less than 20 nM
rule met

Answer whether the binder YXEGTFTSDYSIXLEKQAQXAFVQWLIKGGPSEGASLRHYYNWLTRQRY (Aib at 2, 13, 20; K28 side chain acylated with C18DA-gGlu-gGlu-gGlu-gGlu-gGlu-gGlu-eLys; C-terminal amide (NH2)) [Compound 265] has EC50 hNPY2R 0.5% hP (CreLuc) strictly less than 20 nM
rule met

Answer whether the binder Y[Aib]EGTFTSDYSI[Aib]LEKQAQ[Aib]EFVEWLIK([AEEA-AEEA-γGlu-C18 diacid])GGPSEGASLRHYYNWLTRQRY-NH2 (also: TFA salt) [Compound 282] has EC50 hNPY2R 0.5% hP (CreLuc) strictly less than 20 nM
rule met

Answer whether the binder Y[Aib]EGTFTSDYSI[Aib]LEKQAQ[Aib]AFVQWLIK([AEEA-AEEA-γGlu-γGlu-γGlu-γGlu-C18 diacid])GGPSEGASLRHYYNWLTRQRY-NH2 (also: TFA salt) [Compound 270] has EC50 hNPY2R 0.5% hP (CreLuc) strictly less than 20 nM
rule met

Answer whether the binder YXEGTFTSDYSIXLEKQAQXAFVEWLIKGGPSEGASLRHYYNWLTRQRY (Aib at 2, 13, 20; K28 side chain acylated with C18DA-gGlu-gGlu-gGlu-gGlu-gGlu-AHX; C-terminal amide (NH2)) [Compound 304] has EC50 hNPY2R 0.5% hP (CreLuc) strictly less than 20 nM
rule not met

Answer whether the binder Y[Aib]EGTFTSDYSI[Aib]LEKQAQ[Aib]AFVEWLIKGGPEEGASLRHYYNWLTRQRY-NH2 (not fully specified (residue 28); also: TFA salt) [Compound 285] has EC50 hNPY2R 0.5% hP (CreLuc) strictly less than 20 nM
rule met

Answer whether the binder Y[Aib]EGTFTSDYSI[Aib]LEKQAE[Aib]AFVEWLIK([γGlu-γGlu-γGlu-γGlu-C20 diacid])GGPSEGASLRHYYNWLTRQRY-NH2 (also: TFA salt) [Compound 280] has EC50 hNPY2R 0.5% hP (CreLuc) strictly less than 20 nM
rule met

Answer whether the binder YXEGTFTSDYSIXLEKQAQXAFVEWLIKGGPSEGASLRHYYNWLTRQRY (Aib at 2, 13, 20; K28 side chain acylated with C20DA-gGlu-gGlu-gGlu-gGlu-gGlu-AHX; C-terminal amide (NH2)) [Compound 301] has EC50 hNPY2R 0.5% hP (CreLuc) strictly less than 20 nM
rule not met
